molecular target: human FPR2 (Homo sapiens (Human)); experiment: FPR2 cyclic adenosine monophosphate (cAMP) assay; conditions: CHO cells overexpressing human FPR2; forskolin 5 µM; inhibition of cAMP production; read-out: hFPR2 cAMP2 EC50
measured-endpoint: pEC50
Quick note: pEC50 values are minus log10 of concentrations in mol/L.

COc1cc(F)c([C@@H]2CN(c3cccn(CCO)c3=O)C(=O)[C@H]2NC(=O)c2ccc(Cl)cc2)c(F)c1 :: 8.47
COc1ccnc(N2C(=O)[C@@H](NC(=O)c3ccc(Cl)cc3)[C@H](c3c(F)cc(OC)cc3F)[C@@H]2C)c1 :: 8.04
CCn1cccc(N2C[C@@H](c3c(F)cc(OC)cc3F)[C@H](NC(=O)c3ccc(C#N)cc3)C2=O)c1=O :: 8.00

Quick note, pEC50 for COc1ccc([C@@H]2CN(c3c(C)ccn(C(F)F)c3=O)C(=O)[C@H]2NC(=O)c2ccc(OC(F)(F)F)cc2)cc1 landed at 8.26

Quick note, pEC50 for COc1cc(F)c([C@@H]2CN(c3cccn(CC(F)(F)F)c3=O)C(=O)[C@H]2NC(=O)c2ccc(OC(F)F)cc2)c(F)c1 landed at 8.30

Quick note, pEC50 for COc1cc(F)c([C@@H]2CN(c3nc(N4CCN(C)CC4)ccc3OC)C(=O)[C@H]2NC(=O)c2ccc(OC(F)F)cc2)c(F)c1 landed at 8.02

---

Reported values of pEC50 for individual entries
target: human FPR2 (Homo sapiens (Human), UniProt P25090); experiment: FPR2 cyclic adenosine monophosphate (cAMP) assay; conditions: CHO cells overexpressing human FPR2; forskolin 5 µM; inhibition of cAMP production; read-out: hFPR2 cAMP2 EC50
Sequence (P25090 whole entry): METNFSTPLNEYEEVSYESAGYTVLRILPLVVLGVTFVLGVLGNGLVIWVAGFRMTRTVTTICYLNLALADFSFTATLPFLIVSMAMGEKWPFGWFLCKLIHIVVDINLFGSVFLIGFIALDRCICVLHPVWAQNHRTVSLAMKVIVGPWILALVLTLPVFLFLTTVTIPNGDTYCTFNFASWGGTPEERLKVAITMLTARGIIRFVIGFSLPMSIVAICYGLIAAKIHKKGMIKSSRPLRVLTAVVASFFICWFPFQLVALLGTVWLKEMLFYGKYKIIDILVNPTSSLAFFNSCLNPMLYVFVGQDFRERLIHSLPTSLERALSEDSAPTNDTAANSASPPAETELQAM
Quick note: pEC50 values are minus log10 of concentrations in mol/L.

Some solved cases for reference:
COc1ccc([C@@H]2CN(c3cccn(CCC(F)(F)F)c3=O)C(=O)[C@H]2NC(=O)c2ccc(OC(F)F)cc2)c(F)c1 :: 8.85
COc1cc(F)c([C@@H]2CN(c3nn(C4COC4)c(=O)cc3C)C(=O)[C@H]2NC(=O)c2ccc(OC(F)F)cc2)c(F)c1 :: 8.33
COc1cc(F)c([C@@H]2CN(c3cccc(C4CCCN(CCO)C4)n3)C(=O)[C@H]2NC(=O)c2ccc(OC(F)F)cc2)c(F)c1 (stereo partly drawn) [Example 502] :: 8.11
COCC(C(=O)N(C)C)n1cccc(N2C[C@@H](c3ccc(Cl)cc3)[C@H](NC(=O)c3ccc(OC(F)(F)F)cc3)C2=O)c1=O (stereo partly drawn) :: 8.17

Quick note, pEC50 for COc1ccc([C@@H]2CN(c3c(C)ccn(C4CCC4)c3=O)C(=O)[C@H]2NC(=O)c2ccc(OC(F)(F)F)cc2)c(F)c1 landed at 7.92

Quick note, pEC50 for COc1cc(F)c([C@@H]2CN(c3ccn(CC(F)F)n3)C(=O)[C@H]2NC(=O)c2ccc(OC(F)F)cc2)c(F)c1 landed at 8.92

---

molecular target: human FPR1 (Homo sapiens (Human), UniProt P21462); assay: FPR1 cyclic adenosine monophosphate (cAMP) assay; details: CHO cells overexpressing human FPR1; forskolin 10 µM; inhibition of cAMP production; read-out: hFPR1 cAMP EC50
Sequence (P21462 whole entry): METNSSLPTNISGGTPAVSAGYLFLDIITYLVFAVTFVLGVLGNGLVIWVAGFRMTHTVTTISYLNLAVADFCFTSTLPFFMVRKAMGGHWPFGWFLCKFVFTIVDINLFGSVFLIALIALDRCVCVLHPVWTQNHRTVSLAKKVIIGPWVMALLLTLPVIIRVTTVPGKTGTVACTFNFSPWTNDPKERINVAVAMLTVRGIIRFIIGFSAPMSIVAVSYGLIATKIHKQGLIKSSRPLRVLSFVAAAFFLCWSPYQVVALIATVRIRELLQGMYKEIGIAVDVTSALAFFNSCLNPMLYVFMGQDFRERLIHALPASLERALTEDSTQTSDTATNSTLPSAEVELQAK
measured-endpoint: pEC50
Quick note: pEC50 values are minus log10 of concentrations in mol/L.

Some solved cases for reference:
O=C(N[C@@H]1C(=O)N(c2cccn(CCC(F)(F)F)c2=O)C[C@H]1c1ccc(Cl)cc1)c1ccc(OC(F)(F)F)cc1 :: 8.49
COCCn1ccc(C)c(N2C[C@@H](c3ccc(OC)cc3)[C@H](NC(=O)c3ccc(Cl)cc3)C2=O)c1=O :: 9.00
CCn1cccc(N2C[C@@H](c3ccc(OC)cc3F)[C@H](NC(=O)c3ccc(OC(F)(F)F)cc3)C2=O)c1=O [Example 82] :: 8.28
COCCn1ccc(C)c(N2C[C@@H](c3ccc(OC)cc3F)[C@H](NC(=O)c3ccc(OC(F)F)cc3)C2=O)c1=O :: 8.85
COc1cc(F)c([C@@H]2CN(c3nccc(NC4CCOC4)c3C(F)(F)F)C(=O)[C@H]2NC(=O)c2ccc(Cl)cc2)c(F)c1 (stereo partly shown) [Example 263] :: 5.89
COc1cc(F)c([C@@H]2CN(c3cccc(N4CCOCC4)n3)C(=O)[C@H]2NC(=O)c2ccc(OC(F)F)cc2)c(F)c1 :: 6.13

Quick note, pEC50 for COc1cc(F)c([C@@H]2CN(c3nc(N4CCN(C)CC4)ccc3F)C(=O)[C@H]2NC(=O)c2ccc(OC(F)F)cc2)c(F)c1 landed at 6.09

Quick note, pEC50 for COc1ccc([C@@H]2CN(c3cccn(CC(O)C(F)(F)F)c3=O)C(=O)[C@H]2NC(=O)c2ccc(OC(F)F)cc2)cc1 (stereo partly shown) [Example 643] landed at 7.12

Quick note, pEC50 for COCCn1cccc(N2C(=O)[C@@H](NC(=O)c3ccc(OC(F)F)cc3)[C@H](c3c(F)cc(OC)cc3F)[C@H]2C)c1=O landed at 6.41

Quick note, pEC50 for COc1cc(F)c([C@@H]2CN(c3cccnc3P(C)(C)=O)C(=O)[C@H]2NC(=O)c2ccc(Cl)cc2)c(F)c1 landed at 5.89

Quick note, pEC50 for COc1cc(F)c([C@@H]2CN(c3cccc(C(F)F)n3)C(=O)[C@H]2NC(=O)c2ccc(OC(F)(F)F)cc2)c(F)c1 landed at 6.52

Quick note, pEC50 for COc1cc(F)c([C@@H]2CN(c3cccn(CC(OC)C(F)(F)F)c3=O)C(=O)[C@H]2NC(=O)c2ccc(OC(F)F)cc2)c(F)c1 (stereo partly shown) [Example 186] landed at 8.52

Quick note, pEC50 for COc1cc(F)c([C@@H]2CN(c3ccnn(CC(F)F)c3=O)C(=O)[C@H]2NC(=O)c2ccc(OC(F)F)cc2)c(F)c1 landed at 8.40
